Just for reference, ChEMBL document CHEMBL1955791 is where these values come from.

system-tested: Inhibitor of nuclear factor kappa-B kinase subunit beta (Homo sapiens, UniProt O14920)
Sequence (O14920 whole entry): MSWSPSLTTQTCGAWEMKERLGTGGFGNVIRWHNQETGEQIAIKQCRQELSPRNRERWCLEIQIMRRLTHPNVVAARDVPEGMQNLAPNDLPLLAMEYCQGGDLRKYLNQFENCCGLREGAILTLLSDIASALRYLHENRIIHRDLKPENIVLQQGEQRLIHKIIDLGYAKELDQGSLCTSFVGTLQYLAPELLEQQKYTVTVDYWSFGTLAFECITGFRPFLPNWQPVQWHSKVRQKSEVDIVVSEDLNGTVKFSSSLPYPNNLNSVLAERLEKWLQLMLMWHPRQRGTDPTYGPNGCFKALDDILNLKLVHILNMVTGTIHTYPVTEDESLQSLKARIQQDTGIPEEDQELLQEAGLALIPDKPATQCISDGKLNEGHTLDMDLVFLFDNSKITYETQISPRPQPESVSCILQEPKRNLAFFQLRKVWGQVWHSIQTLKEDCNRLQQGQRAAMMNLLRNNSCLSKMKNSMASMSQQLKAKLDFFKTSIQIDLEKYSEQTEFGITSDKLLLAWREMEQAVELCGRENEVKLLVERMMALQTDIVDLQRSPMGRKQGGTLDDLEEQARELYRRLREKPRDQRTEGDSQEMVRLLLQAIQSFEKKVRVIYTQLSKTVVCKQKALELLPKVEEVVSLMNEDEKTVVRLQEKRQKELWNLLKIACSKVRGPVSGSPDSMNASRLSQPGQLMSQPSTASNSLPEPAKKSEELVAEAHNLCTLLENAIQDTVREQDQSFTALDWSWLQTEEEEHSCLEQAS
test-details: Inhibition of IKK-beta using TMB substrate after 15 mins by spectrophotometer analysis
endpoint-name: IC50 (µM)
Answers are plain numbers, in µM.

> print(dat)
                                   compound                             system.tested  endpoint.name  recorded.number
1  CC(C)=CCc1c(O)cc2c(c1O)C(=O)C1=C[C@@H]3C[C@H]4C(C)(C)O[C@@](CC=C(C)C)(C3=O)[C@@]14O2  Inhibitor of nuclear factor kappa-B kinase subunit beta (Homo sapiens, UniProt O14920)           IC50             10.8
2  CC(C)=CC[C@@]12OC(C)(C)[C@@H]3C[C@@H](C=C4C(=O)CC(C)O[C@]431)C2=O (some centres undefined)  Inhibitor of nuclear factor kappa-B kinase subunit beta (Homo sapiens, UniProt O14920)           IC50             40.3
3  CC(C)=CC[C@@]12OC(C)(C)[C@@H]3C[C@@H](C=C4C(=O)c5c(O)cc(O)cc5O[C@]431)C2=O  Inhibitor of nuclear factor kappa-B kinase subunit beta (Homo sapiens, UniProt O14920)           IC50             3.52

Proceeding to the next compound to report its IC50.
Req: Please look at O=c1cc(-c2ccccc2)oc2c(O)c(O)ccc12 [7,8-DIHYDROXYFLAVONE] and tell me its recorded IC50 on Inhibitor of nuclear factor kappa-B kinase subunit beta (Homo sapiens, UniProt O14920).
Resp: 9.82
